# assayed.system: Tyrosine-protein kinase Lyn (Homo sapiens, UniProt P07948)
# Sequence (P07948 2-512 limits assumed): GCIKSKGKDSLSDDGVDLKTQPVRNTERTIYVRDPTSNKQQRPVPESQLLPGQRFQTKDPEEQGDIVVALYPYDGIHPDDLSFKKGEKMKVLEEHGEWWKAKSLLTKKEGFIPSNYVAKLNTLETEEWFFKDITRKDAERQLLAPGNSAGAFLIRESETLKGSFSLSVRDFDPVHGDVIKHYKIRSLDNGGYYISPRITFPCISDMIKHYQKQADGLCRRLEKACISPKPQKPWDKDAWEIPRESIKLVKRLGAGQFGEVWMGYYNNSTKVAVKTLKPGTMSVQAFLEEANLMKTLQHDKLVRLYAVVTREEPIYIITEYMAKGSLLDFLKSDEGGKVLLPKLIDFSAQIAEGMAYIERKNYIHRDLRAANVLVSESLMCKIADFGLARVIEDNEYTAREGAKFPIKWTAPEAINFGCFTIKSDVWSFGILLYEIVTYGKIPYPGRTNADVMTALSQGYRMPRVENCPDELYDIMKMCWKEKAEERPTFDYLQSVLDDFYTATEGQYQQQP
# assay.details: Inhibition of LYN at 30 uM by microfluidic mobility shift assay
Reported inhibition values for the following compounds.
Please state the figure in %; there is no need to write the unit.

The cases that follow already have their inhibition on record.
- structure: "Cc1nc(N)c2c(=O)[nH]c(C)cc2n1"
  inhibition [%]: 7
- structure: "COc1cccc(-c2cc3c(c(N)nn3C)c(=O)[nH]2)c1"
  inhibition [%]: 26
- structure: "Nc1n[nH]c2cc(-c3cccs3)[nH]c(=O)c12"
  inhibition [%]: 63
- structure: "Cc1cc2c(c(N)nn2C)c(N2CC[C@H](O)C2)n1"
  inhibition [%]: 5
- structure: "Nc1c2c(=O)[nH]c(-c3ccccc3)cc2nn1-c1ccccn1"
  inhibition [%]: 40

Query: Reported inhibition, compound Cc1cc2[nH]ncc2c(=O)[nH]1 : ____
Reply: 5

Query: Moving on to CN1CCN(c2ccc(-c3cc4c(c(N)nn4C)c(=O)[nH]3)cc2)CC1
Reply: 54

Query: Follow-up entry: Nc1n[nH]c2cc(-c3ccc(N4CCOCC4)cc3)[nH]c(=O)c12
Reply: 63

Query: What do we get for Nc1n[nH]c2cc(-c3ccccn3)[nH]c(=O)c12 ?
Reply: 49
